# Test system: 885512-296-R-J2-PDC complex spheroid viability;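 note: spheroids exposed to the compounds for one week; percent of tumor spheroid viability relative to DMSO vehicle control wells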
# Test Method Notes: Anticancer human tumor 885512-296-R-J2-PDC patient-derived breast carcinoma cell line growth inhibition [GQUAD]
# Experimental Setup: second compound 3.16 µM; first compound 0.000999 µM; stronger effect = lower value
# Excerpt: DNA G-quadruplex Stabilizer Agents in Combinations in Complex Spheroids A high-throughput screen of multi-cell type tumor spheroids was designed to identify active combinations of DNA G-quadruplex stabilizer agents and targeted small molecules. […] Compounds. […] If the clinical Cmax for an agent had not been determined, the highest concentration tested was 10 microM. […]
Value Type: viability, T/C (%)
Form entry: value (%) — number only.

API: value(readout=viability, T/C, system=885512-296-R-J2-PDC complex spheroid viability) for record Cc1[nH]c2ccccc2c1CCNCc1ccc(/C=C/C(=O)NO)cc1 + CN(C)c1ccc(Nc2c3ccc(NC(=O)CCN4CCCC4)cc3nc3cc(NC(=O)CCN4CCCC4)ccc23)cc1;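 note: spheroids exposed to the compounds for one week; percent of tumor spheroid viability relative to DMSO vehicle control wells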
80

Now this one: CC[C@@]1(O)C(=O)OCc2c1cc1n(c2=O)Cc2cc3c(CN(C)C)c(O)ccc3nc2-1 + CN(C)c1ccc(Nc2c3ccc(NC(=O)CCN4CCCC4)cc3nc3cc(NC(=O)CCN4CCCC4)ccc23)cc1
85.8

Now this one: CCc1c2c(nc3ccc(O)cc13)-c1cc3c(c(=O)n1C2)COC(=O)[C@]3(O)CC + Cc1cnc(CNC(=O)c2c(=O)c3ccc(N4CCCN(C)CC4)nc3n3c2sc2ccccc23)cn1
26.4

Now this one: Cn1ncnc1[C@H]1c2n[nH]c(=O)c3cc(F)cc(c23)N[C@@H]1c1ccc(F)cc1 + CN(C)c1ccc(Nc2c3ccc(NC(=O)CCN4CCCC4)cc3nc3cc(NC(=O)CCN4CCCC4)ccc23)cc1
95.2

Now this one: CC[C@@]1(O)C(=O)OCc2c1cc1n(c2=O)Cc2cc3c(CN(C)C)c(O)ccc3nc2-1 + Cc1[nH]c2ccc(F)cc2c1-c1nc2c3cccnc3c3ncccc3c2[nH]1
14.8

Now this one: CCc1c2c(nc3ccc(O)cc13)-c1cc3c(c(=O)n1C2)COC(=O)[C@]3(O)CC + Cc1[nH]c2ccc(F)cc2c1-c1nc2c3cccnc3c3ncccc3c2[nH]1
3.36

Now this one: Cc1[nH]c2ccccc2c1CCNCc1ccc(/C=C/C(=O)NO)cc1 + Cc1[nH]c2ccc(F)cc2c1-c1nc2c3cccnc3c3ncccc3c2[nH]1
5.78

Cited source for all entries: PubChem BioAssay AID2060490
